src = PubChem BioAssay AID1419

test: blockers of an Epstein-Barr virus protein-peptide interaction – biochemical, fluorescence polarization, dose response (AID 1419); conditions: cell-free protein-peptide binding, 2 h
Active and inactive are the calls of the source. The rule behind the calls is not given here.
Returns: one label drawn from TRUE = active, FALSE = inactive

Cn1cccc1/C=C1/C(=O)NC(=O)N(Cc2ccc(F)cc2)C1=O = FALSE
Cn1c(SCC(=O)Nc2ccc3nc(SCC(=O)N4CCCC4)sc3c2)nnc1-c1ccc(N)cc1 = FALSE

Test call for this molecule, please: COC(=O)c1cc(NC(=O)c2ccccc2)c(=O)oc1/C=C/Nc1ccc(Oc2ccccc2)cc1
TRUE

Now the molecule CCOc1ccccc1-c1c2cc(O)c(=O)cc-2oc2cc(O)c(O)cc12
FALSE

Now the molecule CCOC(=O)C(=O)/C(=C\N(C)C)c1onc(-c2ccccc2)c1C(=O)OC
FALSE

Now the molecule Cc1ccc(N2C(=O)[C@@H]3[C@H](C2=O)C2c4ccccc4C=CN2[C@@H]3C(=O)c2ccco2)cc1 (stereo partly specified)
TRUE

Now the molecule O=C(/C(=C(\[O-])c1ccccc1)[n+]1ccc2ccccc2c1)c1ccccc1
TRUE

Now the molecule Cc1nn(-c2ccccc2)c2c1C(c1ccccc1)C(C#N)=C(N)O2 (stereo unspecified)
FALSE

Now the molecule Cn1c(=O)c(Nc2ccc(Cl)cc2)c2c3c(cccc31)C(=O)c1ccccc1-2
TRUE

Now the molecule Cc1nnc(N2C(=O)C(O)=C(C(=O)c3ccco3)C2c2ccc(C(C)C)cc2)s1 (stereo unspecified)
TRUE

Now the molecule COC(=O)c1cc(C(=O)c2ccc(Cl)cc2)n2c(=O)/c(=C\N(C)C)sc12
FALSE

Now the molecule COc1ccc(-c2csc(NC(=O)CSc3nc(C)nc4sc(C(=O)O)c(C)c34)n2)cc1
FALSE

* * *

assay: blockers of an Epstein-Barr virus protein-peptide interaction – biochemical, fluorescence polarization, dose response (AID 1419); settings: cell-free protein-peptide binding, 2 h
Active and inactive are the calls of the source. The rule behind the calls is not given here.
Returns: one label drawn from Yes for active, No for inactive

Worked examples follow.
Cc1cc2nc3c(=O)n(CCc4ccccc4)c(=O)[nH]c3nc2cc1N = Yes
O=C1Nc2ccccc2/C1=C/c1cnc(-c2ccccc2)[nH]1 = Yes
O=C(c1ccccc1)c1ccc(O)cc1O = Yes
COc1ccc(/C=C2\SC(=O)N(CC(=O)NNC(=O)c3ccccc3O)C2=O)cc1 = No
CCOc1ccc(Cn2c3ccc(OC)cc3c3nc4ccccc4nc32)cc1 = Yes
CC(C)Nc1nc(Cl)nc(N(C#N)CN2C(=O)c3ccccc3S2(=O)=O)n1 = No

Test call for this compound, please: O=c1[nH]c(=O)n(Cc2ccccc2Cl)c(O)c1/C=C1/C=CC=N1
No

Now the compound COc1ccc(-n2cccc2/C=C2\C(=N)N3N=C(c4ccco4)SC3=NC2=O)cc1
Yes

Now the compound N#C/C(=C\C1=C(N2CCOCC2)C(=C/c2cccc([N+](=O)[O-])c2)/CC1)C(=O)Nc1ccccc1F
Yes

Now the compound CCOc1ccc(N=C2NC(=O)S/C2=C\c2ccc(N(C)C)cc2)cc1
Yes

Now the compound Cc1cc(C)c[n+](-c2nc3ccccc3nc2[N-]S(=O)(=O)c2ccc(Br)s2)c1
Yes

Now the compound Oc1c(Cl)cc(Cl)c(Cl)c1Cc1c(O)c(Cl)cc(Cl)c1Cl
Yes

* * *

assay: blockers of an Epstein-Barr virus protein-peptide interaction – biochemical, fluorescence polarization, dose response (AID 1419); conditions: cell-free protein-peptide binding, 2 h
Calls of active or inactive are those of the source. The rule behind the calls is not given here.
Returns: one label drawn from true (active), false (inactive)

O=c1[nH]c(=O)n(Cc2ccccc2)c(O)c1/C=C1\C=Nc2ccccc21 = true
CCSc1nc2sc3c(c2c(=O)[nH]1)CCCC3 = false
O=c1oc2c3c4c(cc2c(C(F)(F)F)c1CCN1CCOCC1)CCCN4CCC3 = true
O=C1C2C3C=CC(C3=C(c3ccccc3)c3ccccc3)C2C(=O)N1Cc1ccccc1 (stereo unspecified) = false
O=C(c1ccc(Cl)cc1)C1C2C(=O)N(c3ccccc3)C(=O)C2C2CCCN21 (stereo unspecified) = true
O=c1nc2c(O)cccn2c2c1c(=O)[nH]c1ccccc12 = true
O=C1C(=Cc2cccn2-c2ccc(O)cc2)C(=O)c2ccccc21 = true
COc1ccc(Nc2nc(=O)c3cc([N+](=O)[O-])ccc3s2)cc1 = false

Test call for this compound, please: CS(=O)(=O)N1N=C(c2ccccc2)CC1c1ccc2c(c1)OCO2 (stereo unspecified)
true

Now the compound Cc1c(O)c2c3c(cccc3c1O)C(=O)N(c1ccccc1)C2=O
true

* * *

assay: blockers of an Epstein-Barr virus protein-peptide interaction – biochemical, fluorescence polarization, dose response (AID 1419); conditions: cell-free protein-peptide binding, 2 h
Active and inactive are the calls of the source. How the calls were made is not given here.
Returns: one label drawn from active, inactive

COc1ccc(NS(=O)(=O)c2ccc(Cl)s2)cn1 = active

Test call for this compound, please: COc1ccc(S(=O)(=O)c2c(N)n(Cc3ccco3)c3nc4ccccc4nc23)cc1
active

Now the compound COC(=O)c1cc(N2CCN(C)CC2)nc2ccccc12
inactive

Now the compound C=CCn1c(O)c(N=NC(=O)CNC(=O)/C=C/c2ccco2)c2ccccc21
inactive

Now the compound O=c1[nH]c(C(Cl)Cl)nc2sc3c(c12)CCN(Cc1ccccc1)C3
active

Now the compound COc1ccccc1NC(=O)C(=O)N/N=C/c1ccc([N+](=O)[O-])s1
inactive

Now the compound O=c1ccc2cc3c4c(c2o1)CCCN4CCC3
active

* * *

experiment: blockers of an Epstein-Barr virus protein-peptide interaction – biochemical, fluorescence polarization, dose response (AID 1419); conditions: cell-free protein-peptide binding, 2 h
The source made the active and inactive calls. No rule for the calls is given here.
Returns: one label drawn from active, inactive

Worked examples follow.
CNc1cccc2c1C(=O)c1ccccc1C2=O = active
CC1CC=C2C(C#N)=C(N)C(C#N)(C#N)C(c3cccs3)C2C1 (stereo not drawn) = active
O=C(O)COc1ccc(/C=N/NC(=O)c2ccc(-c3csc(Nc4ccc(Cl)cc4)n3)cc2)cc1 = active
COc1ccc(N=C2NC(=O)S/C2=C\c2ccc(N(C)C)cc2)cc1 = active
O=C(N/N=C/c1cccc(F)c1)c1cc(-c2ccco2)nc2ccccc12 = active

Test call for this molecule, please: COC(OC)c1ccnc(-c2ccc(OC(=O)c3cccs3)cc2)n1
inactive

Now the molecule O=C(CSc1ccsc1[N+](=O)[O-])Nc1cc(F)ccc1F
inactive

* * *

experiment: blockers of an Epstein-Barr virus protein-peptide interaction – biochemical, fluorescence polarization, dose response (AID 1419); details: cell-free protein-peptide binding, 2 h
The source made the active and inactive calls. The rule behind the calls is not given here.
Returns: one label drawn from active, inactive

Worked examples follow.
CC(C)c1ccc(/C=C/C(=O)n2nnc3ccccc32)cc1 = inactive
COc1ccc(OC)c(/C=C2\SC(=S)N(Cc3cccnc3)C2=O)c1 = active

Test call for this compound, please: COc1ccc(-c2nc(CS(=O)CC(=O)NCc3cccnc3)c(C)o2)cc1 (stereo unspecified)
inactive

Now the compound CCCSCC(=O)Nc1ncc2c(n1)-c1ccccc1CC2
active

Now the compound O=Cc1ccc2noc(-c3ccc(F)cc3)c2c1
active

Now the compound COc1cc(/C=C2\SC(=O)N(Cc3ccc(F)cc3)C2=O)cc([N+](=O)[O-])c1O
inactive

Now the compound Cc1ccc(C(=O)Nn2c(O)c(C=C3N=c4ccccc4=N3)sc2=S)cc1
inactive

Now the compound Cn1c(/N=C/c2c(O)ccc3ccccc23)nc2ccccc21
active

* * *

test: blockers of an Epstein-Barr virus protein-peptide interaction – biochemical, fluorescence polarization, dose response (AID 1419); settings: cell-free protein-peptide binding, 2 h
pIC50: −log10 of the molar value.
Exercise: state measured pIC50 for each of the molecules provided.

Required: pIC50, one value per molecule below.
1. N#Cc1cccc(NC(=O)CSc2ccc3c4c(cccc24)C(=O)c2ccccc2-3)c1
2. COc1cc(/C=N/c2oc(-c3ccccc3)cc2C#N)ccc1O
3. CCCCCn1nc(-c2ccccc2)c2nc3ccccc3nc21
4. COc1ccc2nc(N3CCCC3)c(C#N)cc2c1
5. NC(=O)c1ccc(N=Nc2c(O)c3ccccc3[nH]c2=O)cc1
6. COc1ccc(NC(=O)CCl)cn1

1. 5.24
2. 4.81
3. 5.53
4. > 6.38
5. 4.88
6. 5.59

* * *

assay: blockers of an Epstein-Barr virus protein-peptide interaction – biochemical, fluorescence polarization, dose response (AID 1419); settings: cell-free protein-peptide binding, 2 h
pIC50: −log10 of the molar value.
QUANTITY KIND: pIC50

Study these solved cases before continuing.
O=C1CCCC2=C1Sc1ccc(Cl)cc1N2 = 5.24
CCN1CC=C2C(C#N)=C(N)C(C#N)(C#N)[C@H](c3ccoc3)[C@H]2C1 = 5.13
COc1ccc2nc(N3CCC(C)CC3)c(C#N)cc2c1 = 5.04
CC1=CC(=C(C#N)c2nc3ccccc3s2)C=C(C)N1c1ccc(F)cc1F = 5.40
COc1ccc2c(c1)c1nc3ccccc3nc1n2CC(=O)OC(C)C = 5.92

Required: pIC50, one value per compound below.
1. O=C1c2ccccc2-c2onc3ccc(NCc4ccco4)c1c23
2. CCN(CC)S(=O)(=O)c1ccc(C(=O)/C=C/c2ccc(-c3ccc([N+](=O)[O-])cc3)o2)cc1
3. O=C(N/N=C/c1cc(Cl)cc(Cl)c1O)c1ccncc1
4. CC1=Nc2ccccc2/C1=C\c1nc(-c2ccc(F)cc2)oc1O
5. CCOc1cccc(C2C(C(=O)c3ccc(C)o3)=C(O)C(=O)N2c2nccs2)c1 (stereo unspecified)
6. C(=N\NC1=Nc2cccc3cccc1c23)/c1ccccc1

1: > 6.38; 2: 5.53; 3: 5.74; 4: 5.77; 5: > 6.38; 6: 4.77
